Would you kindly list Neovascular clusters area for each of these substances?
Test system: retinal neovascular clusters in OIR C57/B16 mice
test name: Retinal blood vessels in OIR mice
Assay type: in vivo, mouse
assay setup: 50 μg intravitreal injection on day 13; retina evaluated on day 17
Where no end group is shown, it is not given here.
Kindly provide the numeric value in mm^2 only, without the unit symbol.

Task: Given mPEG-bALD10k-Arg-Gly-Ala-Asp-Arg-Ala-Gly-Gly-Gly-Gly-Arg-Gly-Asp ({mPEG‑bALD 10 kDa}-RGADRAGGGGRGD) [mPEG-bALD10k-HM-1] , state its recorded Neovascular clusters area.
Result: 0.083

Task: What do you have for mPEG-ALD10k-Arg-Gly-Ala-Asp-Arg-Ala-Gly-Gly-Gly-Gly-Arg-Gly-Asp ({mPEG‑ALD 10 kDa}-RGADRAGGGGRGD) [mPEG-ALD10k-HM-1] ?
Result: 0.085

Task: What do you have for mPEG2-NHS10k-Arg-Gly-Ala-Asp-Arg-Ala-Gly-Gly-Gly-Gly-Arg-Gly-Asp ({mPEG2‑NHS 10 kDa}-RGADRAGGGGRGD) [mPEG2-NHS10k-HM-1] ?
Result: 0.100

Task: What do you have for mPEG-SC10k-Arg-Gly-Ala-Asp-Arg-Ala-Gly-Gly-Gly-Gly-Arg-Gly-Asp ({mPEG‑SC 10 kDa}-RGADRAGGGGRGD) [mPEG-SC10k-HM-1] ?
Result: 0.096

---

Would you kindly list Swelling for each of these substances?
Tested on: carrageenan-induced toe swelling in SD rats
test name: Carrageenan-induced acute toe swelling in rats
Format: in vivo, rat
Design: unit not given here
assay setup: 20 mg/kg once a day for 3 days; 7 h after carrageenan
Where no end group is shown, it is not given here.
// return a plain number; no unit text

Task: Given mPEG-SC10k-Arg-Gly-Ala-Asp-Arg-Ala-Gly-Gly-Gly-Gly-Arg-Gly-Asp ({mPEG‑SC 10 kDa}-RGADRAGGGGRGD) [mPEG-SC10k-HM-1] , state its recorded Swelling.
Result: 0.31

Task: What do you have for mPEG-ALD5k-Arg-Gly-Ala-Asp-Arg-Ala-Gly-Gly-Gly-Gly-Arg-Gly-Asp ({mPEG‑ALD 5 kDa}-RGADRAGGGGRGD) [mPEG-ALD5k-HM-1] ?
Result: 0.35

Task: What do you have for mPEG-ALD10k-Arg-Gly-Ala-Asp-Arg-Ala-Gly-Gly-Gly-Gly-Arg-Gly-Asp ({mPEG‑ALD 10 kDa}-RGADRAGGGGRGD) [mPEG-ALD10k-HM-1] ?
Result: 0.32

Task: What do you have for mPEG2-NHS5k-Arg-Gly-Ala-Asp-Arg-Ala-Gly-Gly-Gly-Gly-Arg-Gly-Asp ({mPEG2‑NHS 5 kDa}-RGADRAGGGGRGD) [mPEG2-NHS5k-HM-1] ?
Result: 0.32

Task: What do you have for mPEG2-NHS10k-Arg-Gly-Ala-Asp-Arg-Ala-Gly-Gly-Gly-Gly-Arg-Gly-Asp ({mPEG2‑NHS 10 kDa}-RGADRAGGGGRGD) [mPEG2-NHS10k-HM-1] ?
Result: 0.30

Task: What do you have for mPEG-SC5k-Arg-Gly-Ala-Asp-Arg-Ala-Gly-Gly-Gly-Gly-Arg-Gly-Asp ({mPEG‑SC 5 kDa}-RGADRAGGGGRGD) [mPEG-SC5k-HM-1] ?
Result: 0.34

---

assay setup: in vivo
Where no end group is shown, it is not given here.
quantity name: AUC0-∞ (mg/L/h)
Kindly provide the numeric value in mg/L/h only, without the unit symbol.

Task: Given mPEG2-NHS20k-Arg-Gly-Ala-Asp-Arg-Ala-Gly-Gly-Gly-Gly-Arg-Gly-Asp ({mPEG2‑NHS 20 kDa}-RGADRAGGGGRGD) [mPEG2-NHS20k-HM-1] , state its recorded AUC0-∞.
Result: 4682.53

Task: What do you have for mPEG2-NHS5k-Arg-Gly-Ala-Asp-Arg-Ala-Gly-Gly-Gly-Gly-Arg-Gly-Asp ({mPEG2‑NHS 5 kDa}-RGADRAGGGGRGD) [mPEG2-NHS5k-HM-1] ?
Result: 4789.25

Task: What do you have for mPEG-ALD10k-Arg-Gly-Ala-Asp-Arg-Ala-Gly-Gly-Gly-Gly-Arg-Gly-Asp ({mPEG‑ALD 10 kDa}-RGADRAGGGGRGD) [mPEG-ALD10k-HM-1] ?
Result: 5067.98

Task: What do you have for mPEG-bALD10k-Arg-Gly-Ala-Asp-Arg-Ala-Gly-Gly-Gly-Gly-Arg-Gly-Asp ({mPEG‑bALD 10 kDa}-RGADRAGGGGRGD) [mPEG-bALD10k-HM-1] ?
Result: 5108.42

Task: What do you have for mPEG2-NHS40k-Arg-Gly-Ala-Asp-Arg-Ala-Gly-Gly-Gly-Gly-Arg-Gly-Asp ({mPEG2‑NHS 40 kDa}-RGADRAGGGGRGD) [mPEG2-NHS40k-HM-1] ?
Result: 4579.47

---

Tested on: Bladder Cancer tumor cells
test name: MTT proliferation inhibition, bladder cancer cells
Format: cell-based, human
Set-up: concentration or dose not given beside the values
assay setup: 48 h
Where no end group is shown, it is not given here.
quantity name: rate of growth inhibition (%)
Kindly provide the numeric value in % only, without the unit symbol.

Task: Given mPEG-SC20k-Arg-Gly-Ala-Asp-Arg-Ala-Gly-Gly-Gly-Gly-Arg-Gly-Asp ({mPEG‑SC 20 kDa}-RGADRAGGGGRGD) [mPEG-SC20k-HM-1] , state its recorded rate of growth inhibition.
Result: 50.39

Task: What do you have for mPEG-ALD10k-Arg-Gly-Ala-Asp-Arg-Ala-Gly-Gly-Gly-Gly-Arg-Gly-Asp ({mPEG‑ALD 10 kDa}-RGADRAGGGGRGD) [mPEG-ALD10k-HM-1] ?
Result: 52.68

Task: What do you have for mPEG-SC40k-Arg-Gly-Ala-Asp-Arg-Ala-Gly-Gly-Gly-Gly-Arg-Gly-Asp ({mPEG‑SC 40 kDa}-RGADRAGGGGRGD) [mPEG-SC40k-HM-1] ?
Result: 48.69

Task: What do you have for mPEG-bALD40k-Arg-Gly-Ala-Asp-Arg-Ala-Gly-Gly-Gly-Gly-Arg-Gly-Asp ({mPEG‑bALD 40 kDa}-RGADRAGGGGRGD) [mPEG-bALD40k-HM-1] ?
Result: 43.82

Task: What do you have for mPEG2-NHS10k-Arg-Gly-Ala-Asp-Arg-Ala-Gly-Gly-Gly-Gly-Arg-Gly-Asp ({mPEG2‑NHS 10 kDa}-RGADRAGGGGRGD) [mPEG2-NHS10k-HM-1] ?
Result: 43.78

---

Would you kindly list Swelling for each of these substances?
Tested on: xylene-induced ear swelling in Kunming mice
test name: Xylene-induced ear swelling in mice
Assay type: in vivo, mouse
assay setup: 5 mg/kg once daily for 5 days; right minus left ear piece weight 2 h after xylene
Description: Kunming mice were used. The saline group was used as the blank control group, the aspirin group (200 mg/kg) as the positive control group, and the mPEG-HM-1 administration group as the experimental group. Mice were administered once daily for 5 consecutive days. The blank control group was given an equal volume of physiological saline. […] Ear pieces were taken with a puncher, weighed, and the swelling degree and swelling rate were calculated. […]
Where no end group is shown, it is not given here.
Kindly provide the numeric value in mg only, without the unit symbol.

Task: Given mPEG-ALD5k-Arg-Gly-Ala-Asp-Arg-Ala-Gly-Gly-Gly-Gly-Arg-Gly-Asp ({mPEG‑ALD 5 kDa}-RGADRAGGGGRGD) [mPEG-ALD5k-HM-1] , state its recorded Swelling.
Result: 5.50

Task: What do you have for mPEG-bALD5k-Arg-Gly-Ala-Asp-Arg-Ala-Gly-Gly-Gly-Gly-Arg-Gly-Asp ({mPEG‑bALD 5 kDa}-RGADRAGGGGRGD) [mPEG-bALD5k-HM-1] ?
Result: 5.44

Task: What do you have for mPEG-SC5k-Arg-Gly-Ala-Asp-Arg-Ala-Gly-Gly-Gly-Gly-Arg-Gly-Asp ({mPEG‑SC 5 kDa}-RGADRAGGGGRGD) [mPEG-SC5k-HM-1] ?
Result: 5.55

Task: What do you have for mPEG2-NHS5k-Arg-Gly-Ala-Asp-Arg-Ala-Gly-Gly-Gly-Gly-Arg-Gly-Asp ({mPEG2‑NHS 5 kDa}-RGADRAGGGGRGD) [mPEG2-NHS5k-HM-1] ?
Result: 5.56

---

System: collagen induced arthritis (CIA) in DBA/1 mice
test name: Collagen-induced mouse arthritis (CIA) model
Type: in vivo
assay setup: 20 mg/kg subcutaneous from day 30 of modeling; CIA DBA/1 mice; maximum score 16
Where no end group is shown, it is not given here.
quantity name: Clinical score
// return a plain number; no unit text

Task: Given mPEG-bALD10k-Arg-Gly-Ala-Asp-Arg-Ala-Gly-Gly-Gly-Gly-Arg-Gly-Asp ({mPEG‑bALD 10 kDa}-RGADRAGGGGRGD) [mPEG-bALD10k-HM-1] , state its recorded Clinical score.
Result: 8.69

Task: What do you have for mPEG2-NHS10k-Arg-Gly-Ala-Asp-Arg-Ala-Gly-Gly-Gly-Gly-Arg-Gly-Asp ({mPEG2‑NHS 10 kDa}-RGADRAGGGGRGD) [mPEG2-NHS10k-HM-1] ?
Result: 8.83

Task: What do you have for mPEG-ALD10k-Arg-Gly-Ala-Asp-Arg-Ala-Gly-Gly-Gly-Gly-Arg-Gly-Asp ({mPEG‑ALD 10 kDa}-RGADRAGGGGRGD) [mPEG-ALD10k-HM-1] ?
Result: 8.65

Task: What do you have for mPEG-SC10k-Arg-Gly-Ala-Asp-Arg-Ala-Gly-Gly-Gly-Gly-Arg-Gly-Asp ({mPEG‑SC 10 kDa}-RGADRAGGGGRGD) [mPEG-SC10k-HM-1] ?
Result: 9.06
